# IC50 against Cytochrome P450 2D6 (Homo sapiens), merged from multiple literature sources
# Sequence (P10635 whole entry): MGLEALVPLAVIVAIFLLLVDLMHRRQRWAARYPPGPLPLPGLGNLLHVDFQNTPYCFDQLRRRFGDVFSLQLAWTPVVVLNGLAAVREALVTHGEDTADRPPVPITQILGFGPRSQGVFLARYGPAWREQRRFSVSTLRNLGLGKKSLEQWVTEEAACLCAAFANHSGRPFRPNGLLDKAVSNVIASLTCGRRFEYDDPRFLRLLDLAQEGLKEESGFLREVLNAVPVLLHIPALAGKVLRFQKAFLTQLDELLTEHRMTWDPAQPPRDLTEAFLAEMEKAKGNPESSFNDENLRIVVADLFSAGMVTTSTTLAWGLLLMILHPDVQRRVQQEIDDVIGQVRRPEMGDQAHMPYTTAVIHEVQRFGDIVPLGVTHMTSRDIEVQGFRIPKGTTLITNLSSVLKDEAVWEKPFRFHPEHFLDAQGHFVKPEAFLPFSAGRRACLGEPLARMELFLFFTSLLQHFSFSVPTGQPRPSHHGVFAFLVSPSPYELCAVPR
Simple rule here: IC50 less than 20 µM is label 1, otherwise label 0.

Please review the entries below; each comes with its answer.
{"molecule": "Cn1cnc2ccc(-c3nc4ccc(C5CC5)cc4n(-c4ccc(OC(F)F)cc4)c3=O)cc21", "assigned_label": "label 1"}
{"molecule": "Nc1nc2cnc(C(=O)N3CCOC[C@@H]3c3ccc(C(F)(F)F)cc3)cc2c2c1COC2", "assigned_label": "label 0"}
{"molecule": "C[C@H]1CCCN1C(=O)c1nc(C(=O)NCC(C)(C)O)sc1-c1ccc(C(O)(C(F)(F)F)C(F)(F)F)c(Cl)c1Cl", "assigned_label": "label 1"}

Confirm or reject: IC50 of C=CC(=O)N1CCc2c(ncnc2N2CC[C@@H](Nc3ncc(Cl)c(OC)n3)C2)C1 lies strictly below 20 µM label 0

Lab note: confirm whether the reported IC50 for this molecule is below 20 µM, equality not counting. molecule: COc1cc(CC(=O)N2CCC(NC(=O)NCc3ccc(OC(F)(F)F)cc3)CC2)cc(OC)c1 label 0

Input O=C(O)c1ccc2nc(Cc3ccc(-c4ccc(F)c(OCc5ccc(Cl)c6ccoc56)n4)cc3F)n(C[C@@H]3CCO3)c2c1 ; condition: IC50 strictly below 20 µM. Does it hold? label 0
